From: patent US9340577B2

Target: HLA-A*0201 (HLA-A2.1) (Homo sapiens, UniProt P04439, D140Y/D185E/D98H/E176V/E277Q/G131W/G231S/I119V/I121R/I166T/I218V/L300P/L318F/N151K/N90K/P208A/P217A/Q86G/Q94H/R138H/R169H/T345S)
Experiment: biochemical
Format: binding
Please go through the items and note down their binding to HLA-A2.1 (column 3; no allele head shown for these rows).
Answers are plain numbers.

Recorded binding to HLA-A2.1 (column 3; no allele head shown for these rows), per entry:
VLGTLEEV	0.0088
RALAETSYV	0.014
EAQQEALGL	0
CILESLFRA	0.073
LVLGTLEEV	0.032

For every record below, what is its binding to HLA-A2.1 (column 3; no allele head shown for these rows)?
1. KMVELVHFLL
2. QVMPKTGLL
3. ATSSSSPLVL
4. AAISRKMVEL
5. VLGTLEEVPTA

Result:
0.071
0
0
0
0.0002
